Recorded values, source patent US12599582B2.

Tested on: HBV
assayComment: HBV-DNA Antiviral Assay Using HepG2.2.15 Cells (extracellular HBV DNA by qPCR)
Type: cell-based, hepatitis B virus (HBV)
measurementSetup: Hepatitis B virus; HBV DNA inhibition, HepG2.2.15 cells, extracellular HBV DNA by qPCR; read-out: EC50
I'd appreciate it if you could supply EC50 values for the items below.

Recorded result, C=CC1(NC(=O)C(=O)c2c(C)c(C(=O)Nc3ccc(F)c(C#N)c3)n(C)c2C)COC1 , EC50: 1 to 10 nM

Recorded result, C#C[C@@H](NC(=O)C(=O)c1c(C)c(C(=O)Nc2ccc(F)c(C#N)c2)n(C)c1C)C(C)(C)C [Compound 30b] , EC50: < 1 nM

Recorded result, Cc1c(C(=O)C(=O)NC(C)(C)c2cscn2)c(C)n(C)c1C(=O)Nc1ccc(F)c(C#N)c1 , EC50: 1 to 10 nM

Recorded result, C#CCNC(=O)C(=O)c1c(C)c(C(=O)Nc2ccc(F)c(C#N)c2)n(C)c1Cl , EC50: 1 to 10 nM

Recorded result, C#CC1(NC(=O)C(=O)c2c(C)c(C(=O)Nc3ccnc(F)c3Br)n(C)c2C)COC1 , EC50: 10 to 100 nM

Recorded result, Cc1c(C(=O)C(=O)NC(C)(C)c2cnn(C3CC3)c2)c(C)n(C)c1C(=O)Nc1ccc(F)c(C(F)(F)F)c1 , EC50: 1 to 10 nM

Recorded result, C=C[C@@H](NC(=O)C(=O)c1c(C)c(C(=O)Nc2ccc(F)c(C#N)c2)n(C)c1C)C(F)(F)F [Compound 36b] , EC50: < 1 nM

Recorded result, C#C[C@](CO)(NC(=O)C(=O)c1c(C)c(C(=O)Nc2ccc(F)c(C#N)c2)n(C)c1C)C(F)(F)F [Compound 71a] , EC50: 1 to 10 nM

Recorded result, Cc1c(C(=O)C(=O)NC(C)(C)c2cccnc2)c(C)n(C)c1C(=O)Nc1ccc(F)c(C(F)(F)F)c1 , EC50: < 1 nM

Recorded result, C#C[C@@](C)(CO)NC(=O)C(=O)c1c(C)c(C(=O)Nc2ccc(F)c(C#N)c2)n(C)c1C [Compound 64b] , EC50: 1 to 10 nM

Recorded result, C#CC1(NC(=O)C(=O)c2c(C)c(C(=O)Nc3ccc(F)c(C#N)c3)n(C)c2C)CC(F)(F)C1 , EC50: < 1 nM

Recorded result, Cc1c(C(=O)C(=O)NC(C)(C)c2cncnc2)c(C)n(C)c1C(=O)Nc1ccc(F)c(C(F)(F)F)c1 , EC50: 1 to 10 nM

Recorded result, C=C[C@](CO)(NC(=O)C(=O)c1c(C)c(C(=O)Nc2ccc(F)c(C#N)c2)n(C)c1C)C(F)(F)F [Compound 74a] , EC50: 1 to 10 nM

Recorded result, Cc1c(C(=O)C(=O)NC(C)(C)c2cccnc2)c(C)n(C)c1C(=O)Nc1ccc(F)c(C#N)c1 , EC50: 1 to 10 nM

Recorded result, C#CC1(NC(=O)C(=O)c2c(C)c(C(=O)Nc3ccc(F)c(C#N)c3)n(C)c2C)CCC1 , EC50: < 1 nM

Recorded result, C#CC(C)(C)NC(=O)C(=O)c1c(C)c(C(=O)Nc2ccc(F)c(F)c2)n(C)c1C , EC50: 1 to 10 nM

Recorded result, C=CC1(NC(=O)C(=O)c2c(C)c(C(=O)Nc3ccc(F)c(C#N)c3)n(C)c2Cl)COC1 , EC50: 1 to 10 nM

Recorded result, Cc1c(C(=O)C(=O)NC(C)(C)c2cncnc2)c(C)n(C)c1C(=O)Nc1ccc(F)c(C#N)c1 , EC50: 1 to 10 nM

Recorded result, Cc1c(C(=O)C(=O)NC(C)(C)c2c[nH]cn2)c(C)n(C)c1C(=O)Nc1ccc(F)c(C(F)(F)F)c1 , EC50: 1 to 10 nM

Recorded result, C#CC1(NC(=O)C(=O)c2c(C)c(C(=O)Nc3ccc(F)c(C#N)c3)n(C)c2C)CC(O)C1 (centres unmarked) , EC50: 1 to 10 nM

Recorded result, C#CC1(NC(=O)C(=O)c2c(C)c(C(=O)Nc3ccc(F)c(C#N)c3)n(C)c2Cl)CC(F)(F)C1 , EC50: < 1 nM

Recorded result, Cc1c(C(=O)C(=O)NC2(c3ccncc3)CC(F)(F)C2)c(C)n(C)c1C(=O)Nc1ccc(F)c(C(F)(F)F)c1 , EC50: < 1 nM

Recorded result, Cc1c(C(=O)C(=O)NC(C)(C)c2ccnn2C)c(C)n(C)c1C(=O)Nc1ccc(F)c(C(F)(F)F)c1 , EC50: 1 to 10 nM

Recorded result, C#CC(C)(C)NC(=O)C(=O)c1c(C)c(C(=O)Nc2ccc(F)c(C#N)c2)n(C)c1C , EC50: < 1 nM

Recorded result, C#CC1(NC(=O)C(=O)c2c(C)c(C(=O)Nc3ccc(F)c(C#N)c3)n(C)c2C)CCS(=O)(=O)CC1 , EC50: 1 to 10 nM

Recorded result, C#C[C@@H](NC(=O)C(=O)c1c(C)c(C(=O)Nc2ccc(F)c(C#N)c2)n(C)c1C)C1COC1 , EC50: 1 to 10 nM

Recorded result, Cc1c(C(=O)C(=O)NC2(c3c[nH]nn3)CC(F)(F)C2)c(C)n(C)c1C(=O)Nc1ccc(F)c(C#N)c1 , EC50: < 1 nM

Recorded result, Cc1c(C(=O)C(=O)NC(C)(C)c2cnn(C)c2)c(C)n(C)c1C(=O)Nc1ccc(F)c(C#N)c1 , EC50: 1 to 10 nM

Recorded result, Cc1c(C(=O)C(=O)NC(C)(C)c2cn[nH]c2)c(C)n(C)c1C(=O)Nc1ccc(F)c(C(F)(F)F)c1 , EC50: < 1 nM
